# Tested on: Escherichia coli TOP10
# Method Description: shrunken log2 fold change of peptide-encoding DNA abundance (4.5 h post-induction vs induction); higher = less antimicrobial activity (less host growth inhibition)
# Test Settings: time post-induction: 4.5 h; library: site-saturation at positions 5, 18, 19, 20
Readout Kind: shrunken log2 fold change
Provide a numeric answer; units are not to be included.

Known results for sequences:
RRIRTRPPRLPRPRPRPFCLPRP; -0.278
RRIRQRPPRLPRPRPRPTYHPRP; -0.184
RRIRWRPPRLPRPRPRPLFPPRP; 0.0582
RRIRHRPPRLPRPRPRPFHAPRP; -0.0061
RRIRYRPPRLPRPRPRPFHPPRP; -0.146

Give measured shrunken log2 fold change for "RRIRGRPPRLPRPRPRPYFTPRP" (Escherichia coli TOP10).
-0.123

Give measured shrunken log2 fold change for "RRIRTRPPRLPRPRPRPVQWPRP" (Escherichia coli TOP10).
0.116

Give measured shrunken log2 fold change for "RRIRYRPPRLPRPRPRPIYTPRP" (Escherichia coli TOP10).
-0.943

Give measured shrunken log2 fold change for "RRIRCRPPRLPRPRPRPFDGPRP" (Escherichia coli TOP10).
-0.0927

Give measured shrunken log2 fold change for "RRIRYRPPRLPRPRPRPIGRPRP" (Escherichia coli TOP10).
-0.0417

Give measured shrunken log2 fold change for "RRIRFRPPRLPRPRPRPFNVPRP" (Escherichia coli TOP10).
-0.0431

Give measured shrunken log2 fold change for "RRIRNRPPRLPRPRPRPLPCPRP" (Escherichia coli TOP10).
-0.207

Give measured shrunken log2 fold change for "RRIRCRPPRLPRPRPRPDQVPRP" (Escherichia coli TOP10).
-0.183

====

# System: Escherichia coli TOP10
# Method Description: shrunken log2 fold change of peptide-encoding DNA abundance (4.5 h post-induction vs induction); higher = less antimicrobial activity (less host growth inhibition)
# Test Settings: time post-induction: 4.5 h; library: site-saturation at positions 5, 18, 19, 20
Output rule met for shrunken log2 fold change not less than 0.1; output rule not met otherwise.

Example entries and their recorded answers appear below.
RRIRLRPPRLPRPRPRPRMTPRP; rule met
RRIRHRPPRLPRPRPRPRWVPRP; rule met
RRIRMRPPRLPRPRPRPQRKPRP; rule met

Is reported shrunken log2 fold change greater than or equal to 0.1 here: "RRIRNRPPRLPRPRPRPIALPRP"
rule not met

Is reported shrunken log2 fold change greater than or equal to 0.1 here: "RRIRRRPPRLPRPRPRPFDTPRP"
rule not met

Is reported shrunken log2 fold change greater than or equal to 0.1 here: "RRIRPRPPRLPRPRPRPSYKPRP"
rule not met

Is reported shrunken log2 fold change greater than or equal to 0.1 here: "RRIRCRPPRLPRPRPRPRYAPRP"
rule not met

Is reported shrunken log2 fold change greater than or equal to 0.1 here: "RRIRTRPPRLPRPRPRPHSEPRP"
rule not met

Is reported shrunken log2 fold change greater than or equal to 0.1 here: "RRIRSRPPRLPRPRPRPNRWPRP"
rule not met

Is reported shrunken log2 fold change greater than or equal to 0.1 here: "RRIRDRPPRLPRPRPRPHWVPRP"
rule not met

====

# Tested on: Escherichia coli TOP10;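 note: peptides expressed intracellularly from a pBAD plasmid library in pooled LB shake-flask culture, induced with 0.3% L-arabinose, DNA abundance read by NGS, three biological replicates, DESeq2 with apeglm shrinkage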
# Method Description: shrunken log2 fold change of peptide-encoding DNA abundance (4.5 h post-induction vs induction); higher = less antimicrobial activity (less host growth inhibition)
# Test Settings: time post-induction: 4.5 h; library: site-saturation at positions 5, 18, 19, 20
Readout Kind: shrunken log2 fold change
Provide a numeric answer; units are not to be included.

RRIRARPPRLPRPRPRPKMNPRP; 0.0254
RRIRWRPPRLPRPRPRPCVLPRP; -0.0369
RRIRSRPPRLPRPRPRPESWPRP; 0.762

Give measured shrunken log2 fold change for "RRIRRRPPRLPRPRPRPRVYPRP" (Escherichia coli TOP10).
0.335

Give measured shrunken log2 fold change for "RRIRMRPPRLPRPRPRPDNQPRP" (Escherichia coli TOP10).
0.0198

Give measured shrunken log2 fold change for "RRIRHRPPRLPRPRPRPTRIPRP" (Escherichia coli TOP10).
-0.0296

Give measured shrunken log2 fold change for "RRIRPRPPRLPRPRPRPRQKPRP" (Escherichia coli TOP10).
0.0891

Give measured shrunken log2 fold change for "RRIRYRPPRLPRPRPRPRRVPRP" (Escherichia coli TOP10).
0.00201
